# credit: patent US10544186B2

experiment: Solubility of the amide linking reagents in organic solvents; format: physicochemical; details: organic solvent or mixture, thermodynamic from solid; solvent Toluene; read-out: solubility in Toluene
Observable: solubility

* [O-][n+]1nn(C(N2CCCC2)=[N+]2CCCC2)c2ccccc21 | < 1200 µg/mL
* CN(C)C(Sc1cccc[n+]1[O-])=[N+](C)C.F[P-](F)(F)(F)(F)F [HOTT, reference compound] | < 1200 µg/mL
* F[P-](F)(F)(F)(F)F.[O-][n+]1nn(C(N2CCCC2)=[N+]2CCCC2)c2ccccc21 [HBPyU, reference compound] | < 1200 µg/mL
* F[P-](F)(F)(F)(F)F.c1cnc2c(c1)nnn2O[P+](N1CCCC1)(N1CCCC1)N1CCCC1 [PyAOP, reference compound] | < 1200 µg/mL
* CN(C)[P+](On1nnc2ccccc21)(N(C)C)N(C)C.F[P-](F)(F)(F)(F)F [BOP, reference compound] | < 1200 µg/mL
* CCOC(=O)/C(C#N)=N/OC(N1CCOCC1)=[N+](C)C | 4500 µg/mL
* CN(C)C(On1nnc2ccccc2c1=O)=[N+](C)C.F[B-](F)(F)F [HDBTU, reference compound] | < 1200 µg/mL
* CCOC(=O)C(C#N)=NO[C+](N(C)C)N1CCOCC1.F[P-](F)(F)(F)(F)F [COMU, reference compound] | 3200 µg/mL

* * *

assay: Solubility of the amide linking reagents in organic solvents; assay type: physicochemical; conditions: organic solvent or mixture, thermodynamic from solid; solvent DMF; read-out: solubility in DMF
Entries and their measured solubility follow.
Observable: solubility (mg/mL)

* CN(C)[P+](On1nnc2ccccc21)(N(C)C)N(C)C.F[P-](F)(F)(F)(F)F [BOP, reference compound] | 660
* CN(C)C(Sc1cccc[n+]1[O-])=[N+](C)C.F[P-](F)(F)(F)(F)F [HOTT, reference compound] | 690
* F[P-](F)(F)(F)(F)F.c1cnc2c(c1)nnn2O[P+](N1CCCC1)(N1CCCC1)N1CCCC1 [PyAOP, reference compound] | 670
* CCOC(=O)C(C#N)=NO[C+](N(C)C)N1CCOCC1.F[P-](F)(F)(F)(F)F [COMU, reference compound] | 530
* CN(C)C(On1nnc2ccccc2c1=O)=[N+](C)C.F[B-](F)(F)F [HDBTU, reference compound] | 250
* F[P-](F)(F)(F)(F)F.[O-][n+]1nn(C(N2CCCC2)=[N+]2CCCC2)c2ccccc21 [HBPyU, reference compound] | 540

* * *

experiment: Solubility of the amide linking reagents in organic solvents; format: physicochemical; conditions: organic solvent or mixture, thermodynamic from solid; solvent CH3CN; read-out: solubility in CH3CN
Below, each of the molecules is paired with its reported solubility value.
Observable: solubility (mg/mL)

- CN(C)C(Sc1cccc[n+]1[O-])=[N+](C)C.F[P-](F)(F)(F)(F)F [HOTT, reference compound]: 810
- F[P-](F)(F)(F)(F)F.c1cnc2c(c1)nnn2O[P+](N1CCCC1)(N1CCCC1)N1CCCC1 [PyAOP, reference compound]: 1000
- F[P-](F)(F)(F)(F)F.[O-][n+]1nn(C(N2CCCC2)=[N+]2CCCC2)c2ccccc21 [HBPyU, reference compound]: 510
- CCOC(=O)C(C#N)=NO[C+](N(C)C)N1CCOCC1.F[P-](F)(F)(F)(F)F [COMU, reference compound]: 565
- CN(C)[P+](On1nnc2ccccc21)(N(C)C)N(C)C.F[P-](F)(F)(F)(F)F [BOP, reference compound]: 510
- CN(C)C(On1nnc2ccccc2c1=O)=[N+](C)C.F[B-](F)(F)F [HDBTU, reference compound]: 240
- CCOC(=O)/C(C#N)=N/OC(N1CCOCC1)=[N+](C)C: 905

* * *

Documented solubility across a set of molecules
test: Solubility of the amide linking reagents in organic solvents; assay type: physicochemical; conditions: organic solvent or mixture, thermodynamic from solid; solvent 9CH2Cl2:1CH3CN; read-out: solubility in 9CH2Cl2:1CH3CN
Observable: solubility (mg/mL)

• CCOC(=O)C(C#N)=NO[C+](N(C)C)N1CCOCC1.F[P-](F)(F)(F)(F)F [COMU, reference compound] = 294
• F[P-](F)(F)(F)(F)F.c1cnc2c(c1)nnn2O[P+](N1CCCC1)(N1CCCC1)N1CCCC1 [PyAOP, reference compound] = 670
• F[P-](F)(F)(F)(F)F.[O-][n+]1nn(C(N2CCCC2)=[N+]2CCCC2)c2ccccc21 [HBPyU, reference compound] = 118
• CN(C)C(On1nnc2ccccc2c1=O)=[N+](C)C.F[B-](F)(F)F [HDBTU, reference compound] = 17
• [O-][n+]1nn(C(N2CCCC2)=[N+]2CCCC2)c2ccccc21 = 190
• CN(C)C(Sc1cccc[n+]1[O-])=[N+](C)C.F[P-](F)(F)(F)(F)F [HOTT, reference compound] = 180

* * *

Known solubility of a selection of compounds
assay: Solubility of the amide linking reagents in organic solvents; type: physicochemical; details: organic solvent or mixture, thermodynamic from solid; solvent THF; read-out: solubility in THF
Observable: solubility

• CN(C)[P+](On1nnc2ccccc21)(N(C)C)N(C)C.F[P-](F)(F)(F)(F)F [BOP, reference compound] = < 4200 µg/mL
• CN(C)C(On1nnc2ccccc2c1=O)=[N+](C)C.F[B-](F)(F)F [HDBTU, reference compound] = < 3300 µg/mL
• CN(C)C(Sc1cccc[n+]1[O-])=[N+](C)C.F[P-](F)(F)(F)(F)F [HOTT, reference compound] = < 1200 µg/mL
• F[P-](F)(F)(F)(F)F.[O-][n+]1nn(C(N2CCCC2)=[N+]2CCCC2)c2ccccc21 [HBPyU, reference compound] = < 3300 µg/mL
